Target: T1, Anti-CD28 Fab (SEQ ID NOs: 696, 697)
T1 construct: Biotinylated and captured on neutravidin coated plates in the phage ELISA
T1 sequence (VH, as listed by the source, chain 1 of 2): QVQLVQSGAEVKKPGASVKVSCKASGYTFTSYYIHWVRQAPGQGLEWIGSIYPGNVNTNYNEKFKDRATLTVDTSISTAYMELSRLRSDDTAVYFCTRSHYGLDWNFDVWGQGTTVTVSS
T1 sequence (VL, as listed by the source, chain 2 of 2): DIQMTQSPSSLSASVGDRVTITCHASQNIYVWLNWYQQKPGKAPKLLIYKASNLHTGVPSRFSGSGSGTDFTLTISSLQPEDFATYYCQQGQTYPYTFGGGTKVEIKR
Experiment: phage ELISA; as above with CD28 antigen as competitor pre-incubated on the Fab coated wells
PARAMETER: Phage binding ELISA, Anti-CD28 Fab signal in the presence of CD28
// response body must contain only the number

INSERT INTO assay_data (binder, meas_value) VALUES
  ('YCEGHSPWYMNKCL (Tested as clonal phage supernatant) [Phage-899 (Peptide-87 library clone, YCEGHSPWYMNKCL)]', 0.06);

Qu. Which Phage binding ELISA, Anti-CD28 Fab signal in the presence of CD28 value is on record for YCDGHAKEYMDKCL (Tested as clonal phage supernatant) [Phage-902 (Peptide-87 library clone, YCDGHAKEYMDKCL)] ?
Ans. 0.08

Qu. So what's the measured Phage binding ELISA, Anti-CD28 Fab signal in the presence of CD28 for this one? YCDGHSSLYMHKCL (Tested as clonal phage supernatant) [Phage-904 (Peptide-87 library clone, YCDGHSSLYMHKCL)]
Ans. 0.07

Qu. Consider the binder YCAGHLQEYMQKCL (Tested as clonal phage supernatant) [Phage-895 (Peptide-87 library clone, YCAGHLQEYMQKCL)] and give its measured Phage binding ELISA, Anti-CD28 Fab signal in the presence of CD28.
Ans. 0.07

Qu. Give the measured Phage binding ELISA, Anti-CD28 Fab signal in the presence of CD28 of YCEGHKPEYMQKCL (Tested as clonal phage supernatant) [Phage-897 (Peptide-87 library clone, YCEGHKPEYMQKCL)] .
Ans. 0.06
